Let's look at some molecules and their measured MIC.
# Test system: Candida albicans
# Test summary: Antifungal activity against Candida albicans ATCC 90028
# Assay type: functional

{"Molecule": "C[n+]1c2ccc(C(=O)O)cc2cc2sc3ccccc3c21.[I-]", "MIC": "> 20 µg/mL"}
{"Molecule": "C[n+]1c2ccccc2cc2[nH]c3ccccc3c21.[I-] [CRYPTOLEPTINE IODIDE]", "MIC": "2 µg/mL"}
{"Molecule": "C[n+]1c2c(cc3ccccc31)Cc1ccccc1-2.[I-]", "MIC": "> 20 µg/mL"}
{"Molecule": "COc1ccc2c(c1)cc1sc3ccccc3c1[n+]2C.[I-]", "MIC": "> 20 µg/mL"}
{"Molecule": "C[n+]1c2ccc(Cl)cc2cc2sc3ccccc3c21.[I-]", "MIC": "2 µg/mL"}
{"Molecule": "C[n+]1c2ccccc2cc2oc3ccccc3c21.[I-]", "MIC": "> 20 µg/mL"}
{"Molecule": "[I-].c1ccc(CCCCC[n+]2cccc3sc4ccccc4c32)cc1", "MIC": "> 20 µg/mL"}
{"Molecule": "C[n+]1c2ccc(C(N)=O)cc2cc2sc3ccccc3c21.[I-]", "MIC": "> 20 µg/mL"}
{"Molecule": "C[n+]1c2ccccc2cc2sc3ccccc3c21.O=S(=O)([O-])C(F)(F)F", "MIC": "10 µg/mL"}
{"Molecule": "C[C@@H]1[C@H](O)[C@@H](C)/C=C/C=C/C=C/C=C/C=C/C=C/C=C/[C@H](O[C@@H]2O[C@H](C)[C@@H](O)[C@H](N)[C@@H]2O)C[C@@H]2O[C@](O)(C[C@@H](O)C[C@@H](O)[C@H](O)CC[C@@H](O)C[C@@H](O)CC(=O)O[C@H]1C)C[C@H](O)[C@H]2C(=O)O", "MIC": "0.25 µg/mL"}
{"Molecule": "CN(C)c1ccc2sc3ccc[n+](C)c3c2c1", "MIC": "> 20 µg/mL"}
{"Molecule": "C[n+]1cccc2sc3ccc([N+](=O)[O-])cc3c21.[I-]", "MIC": "> 20 µg/mL"}
{"Molecule": "C[n+]1cccc2sc3ccccc3c21.[I-]", "MIC": "> 20 µg/mL"}
{"Molecule": "C[n+]1c2ccc(C#N)cc2cc2sc3ccccc3c21.[I-]", "MIC": "> 20 µg/mL"}

* * *

# System: Aspergillus fumigatus
# Test summary: Antifungal activity against Aspergillus fumigatus ATCC 90906
# Format: functional, organism-based
# Details: in the assay text read “Antifungal” for “Antibacterial”
Let's look at some molecules and their measured MIC.
Measurement kind: MIC

{"Molecule": "C[n+]1c2ccccc2cc2[nH]c3ccccc3c21.[I-] [CRYPTOLEPTINE IODIDE]", "Test system": "Aspergillus fumigatus", "Measurement kind": "MIC", "Endpoint value": "> 20 µg/mL"}
{"Molecule": "C[n+]1c2ccc(C(=O)O)cc2cc2sc3ccccc3c21.[I-]", "Test system": "Aspergillus fumigatus", "Measurement kind": "MIC", "Endpoint value": "10 µg/mL"}
{"Molecule": "C[n+]1cccc2sc3ccccc3c21.[I-]", "Test system": "Aspergillus fumigatus", "Measurement kind": "MIC", "Endpoint value": "> 20 µg/mL"}
{"Molecule": "C[n+]1c2ccccc2cc2sc3ccccc3c21.[I-]", "Test system": "Aspergillus fumigatus", "Measurement kind": "MIC", "Endpoint value": "> 20 µg/mL"}
{"Molecule": "C[n+]1c2c(cc3ccccc31)Cc1ccccc1-2.[I-]", "Test system": "Aspergillus fumigatus", "Measurement kind": "MIC", "Endpoint value": "> 20 µg/mL"}
{"Molecule": "C[n+]1cccc2sc3ccc([N+](=O)[O-])cc3c21.[I-]", "Test system": "Aspergillus fumigatus", "Measurement kind": "MIC", "Endpoint value": "> 20 µg/mL"}
